Each item that follows carries a reported TGI.
system: HOP-92 NSCLC; assay: NCI tumour cell line growth inhibition, 48 h

A selection of reference data follows.
COC(=O)CNC(=O)CCC(C)[C@H]1CCC2C3C(C[C@H](OC(C)=O)[C@@]21C)[C@@]1(C)CCC2(C[C@H]1C[C@H]3OC(C)=O)OOC1(CCCCC1)OO2 (stereo partly drawn)	2.72 µM
COc1cc2nc(-c3cccc4cccnc34)nc(NC3CCN(Cc4ccccc4)CC3)c2cc1OC	3.36 µM
C[C@H](NC(=O)c1c(C(F)F)nn(C)c1Oc1cccc(C(F)(F)F)c1)c1ccc(C(=O)O)cc1	> 100 µM
Cc1noc(C)c1-c1cnc2c(-c3ccc(C(=O)O)cc3)cn([C@@H](C)c3ccccn3)c2c1	> 100 µM
CC(=O)OC1C(O[C@H]2CC[C@]34O[C@]35CC[C@]3(C)C(C6(C)CC[C@@H](C(C)(C)O)O6)[C@@H](O)CC3(C)[C@@H]5CC(OC3OC(CO)C(O)C(O)C3O)C4C2(C)C)OCC(O)C1O (stereo partly drawn)	> 100 µM

Value of TGI reported for the compound C/C(CC(=O)Nc1ccc(NC(=O)C/C(C)=N\NC(N)=O)cc1)=N/NC(N)=O is > 100 µM

Given item COc1ccc2oc(C(=O)N3CC(CCl)c4ccc(N)cc43)cc2c1 (stereo not drawn) , the value recorded as its TGI is 18.7 µM

compound CCc1nc2cc(/C=C/C(=O)NO)ccc2c(=O)n1CCc1ccc(OC)cc1 , TGI observed: 5.7 µM

====

tested on: RPMI-8226 leukemia; test: NCI tumour cell line growth inhibition, 48 h; in the data active means GI50 below about 0.43 µM; inactive means the rest
Your answer must be one of the following: active, inactive

Consider the following illustrative entries.
COc1ccc(-c2nn3ncccc3c2-c2ccnc(Nc3ccc4c(c3)OCCO4)n2)cc1	inactive
COc1ccc(-c2n[nH]nc2-c2cc(OC)c3c(c2)OCO3)cc1	active
Nc1nc2c(ccc3ccccc32)s1	inactive

Now, please, on to the next compound.
Test call, this compound: NCCOc1ncccc1/C=C1\c2ccccc2-c2ccc([N+](=O)[O-])cc21
active

====

Measured TGI, listed per entry for reference.
tested on: HCT-116 colon; experiment: NCI tumour cell line growth inhibition, 48 h

COc1ccc(/C(Cl)=C(\C=O)c2ccc(Cl)cc2)cc1OC	33.3 µM

Measured TGI of Cc1cc(N(CCC#N)CCC#N)ccc1/C(N=Nc1ccc([N+](=O)[O-])cc1)=N\NC(=O)c1ccccc1 : > 100 µM

Recorded TGI (molecule O=C(/C(=N/Nc1ccccc1)c1ccc([N+](=O)[O-])cc1)c1ccc([N+](=O)[O-])cc1 ): > 100 µM

TGI recorded for this molecule, Cn1cc(C2=C(c3ccccc3C(F)(F)F)C(=O)NC2=O)c2ccccc21 , is > 25 µM

For record CCc1nn2ncccc2c1-c1ccnc(NC2CC2)n1 the listed TGI is > 25 µM

The reported TGI of the molecule COC(=O)[C@H](Cc1c[nH]c2ccccc12)NC(=O)c1ccccc1I was > 100 µM

Lookup result for CCC[CH2][Sn]([CH2]CCC)([O]C(=O)c1cccc(F)c1F)[O]C(=O)c1cccc(F)c1F ; measured TGI: 2.43 µM

The molecule listed as CC(=O)NC1(C)C(C)C2CC1C(C)C2(C)C (centres undefined) has a reported TGI of > 100 µM

TGI reading for O=C(NC(=O)c1cn(CCN2CCN(C(=O)NCCCCCCNC(=O)N3CCN(CCn4cc(C(=O)NC(=O)OCc5ccccc5)c(=O)[nH]c4=O)CC3)CC2)c(=O)[nH]c1=O)OCc1ccccc1 : > 100 µM

From: PubChem BioAssay (NCI)
